# Assay Protocol: amyloid nucleation score (Sup35N fusion, yeast selection) (log enrichment); library NNK2; higher = more nucleation; inactive = no reads after selection;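 note: zero at mode of non-aggregating sequences after 7 days selection at 30°C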
Endpoint Name: amyloid nucleation score

>>> observed_measurement("VWLEACGFSRIFSLQFLVSV")
-0.476
>>> observed_measurement("HYMDSNIVLNSAKSRRKDAW")
0.132
>>> observed_measurement("CTCKRLVLRVVVEWA")
1.82
>>> observed_measurement("VIIINIVFKSGMGQLLGHRR")
6.53
>>> observed_measurement("TCDWVVLIYPSSGCCRLEWR")
0.99
>>> observed_measurement("EDFMRCRVWVSRGLVPSWGS")
0.747
>>> observed_measurement("TDNVIMVERDRASKVCERKG")
0.433
>>> observed_measurement("LRDLLLVRTSSCDSYMWLSP")
-0.254
>>> observed_measurement("HSSMLLSVFDLNARK")
-0.174
>>> observed_measurement("QNYRNSGVKLHTRRIISCNV")
-0.526
>>> observed_measurement("LPSVDQTATS")
-0.481
>>> observed_measurement("VVNLDSF")
-1.95
>>> observed_measurement("SQHSRHRRQSVVYYAVDGVE")
1.21
>>> observed_measurement("NMWTFRSIMIPALFYEIFIA")
-1.75
>>> observed_measurement("YSLTYLAFSFQKNNTIFLTY")
0.358
>>> observed_measurement("NSVRFSRLKRFSNCMFNHWR")
0.284
>>> observed_measurement("LGCYTYLQEVRMGEDTARGG")
0.386
>>> observed_measurement("GVYICQFIAVISLSAQSLWY")
-0.97
>>> observed_measurement("TSARRQLDDQRAWPEMAN")
0.239

###

# Assay Protocol: amyloid nucleation score (Sup35N fusion, yeast selection) (log enrichment); library NNK3; higher = more nucleation; inactive = no reads after selection
Endpoint Name: amyloid nucleation score

>>> observed_measurement("GRSWVLV")
"inactive"
>>> observed_measurement("SIRVINKRHCCSSGDWREDR")
1.78
>>> observed_measurement("NLKSWFFCIVHCIRLHASVN")
"inactive"
>>> observed_measurement("TCSYANHMSKVFEVVMV")
"inactive"
>>> observed_measurement("TWLIGHGAVIVRLYNFYMAI")
"inactive"
>>> observed_measurement("ASKENCLIVFIVYQSIIETC")
"inactive"
>>> observed_measurement("NLVRSDSVRFAYVKWGPMHG")
"inactive"
>>> observed_measurement("SAYRVKMHKRRKAESVLGFR")
"inactive"
>>> observed_measurement("IFLDNFFKSFFGRRGSKS")
0.662
>>> observed_measurement("VYTGWKKVACNA")
-0.211
>>> observed_measurement("HCLLCNYRLWSACKCPGYVS")
"inactive"
>>> observed_measurement("ASGSHSVT")
"inactive"
>>> observed_measurement("ISHFLE")
"inactive"
>>> observed_measurement("SLDKSMSGKRSLVRADSTLS")
-0.046
>>> observed_measurement("PVLGYAECIYKMYKSSQVSW")
"inactive"
>>> observed_measurement("SMEIGLGVEIYDVMRFGERM")
"inactive"
>>> observed_measurement("FYLHSFRLNHSLRDLSDLGE")
"inactive"
>>> observed_measurement("MGMFTNPT")
"inactive"
>>> observed_measurement("TECMGGGSVWTQW")
"inactive"
>>> observed_measurement("NRSPLCLKC")
"inactive"
>>> observed_measurement("TLLVCNMWNFSRNIMVHIGV")
"inactive"
>>> observed_measurement("SGMLKRFSALRGISASVVGV")
"inactive"
>>> observed_measurement("VRVSNSFMTDTK")
"inactive"
>>> observed_measurement("QTMAAYLYSWNNTV")
"inactive"
>>> observed_measurement("SVSTGVKIACTPTIVDRQLG")
"inactive"
>>> observed_measurement("SSMWCMDRSLYTNYEYQRVL")
0.054
>>> observed_measurement("YCLFASMKDDAQGTQNCDRS")
"inactive"
>>> observed_measurement("RSVVLNRADMECKQELVNLN")
"inactive"
>>> observed_measurement("GKGSNASIGVITVDTVYIVA")
1.42
>>> observed_measurement("SSEHFGCEASGVAER")
"inactive"
>>> observed_measurement("FPQFLSIAGPKPHCKN")
"inactive"
>>> observed_measurement("YYSGVFPNVVGRS")
"inactive"
>>> observed_measurement("SGRIRVSKSSTGKSLSTSII")
"inactive"
>>> observed_measurement("IRFSGIVAVMISQGGSRREC")
2.5
>>> observed_measurement("RFNGDQMYFNLSFKISELFP")
1.09
>>> observed_measurement("ASFFNILNPISIVVILKRFC")
"inactive"
>>> observed_measurement("HNSACFANSDEVSVASRAMT")
2.45
>>> observed_measurement("LQRPASEFSERGA")
"inactive"
>>> observed_measurement("DMRVFANMWLVEIPVPS")
"inactive"
>>> observed_measurement("SMSAMYDSAIVV")
"inactive"
>>> observed_measurement("LHSSNCCNEIVMRNRCWRKF")
"inactive"
